system: KHYG-1 (IL-2 2.5 ng/mL); assay: percent inhibition of viability; higher = more inhibition; settings: 72 h; 1 nM
endpoint: percent inhibition of viability (%)
# unit: % | format: bare number

Example cases with answers are listed next.
N#CC(c1ccnc(OCc2ccc(CN3CCOCC3)cc2)n1)c1nc2ccccc2s1 (stereo not drawn) [Bentamapimod] (max concentration tested 10000 nM) ... -0.61
COc1cc2c(Nc3ccc(Cl)c(Cl)c3F)ncnc2cc1OC[C@@H]1C[C@@H]2CN(C)C[C@@H]2C1 [XL-647] (max concentration tested 1000 nM) ... -7.9

Note: attention shifts to another entry.
Reported percent inhibition of viability (KHYG-1 (IL-2 2.5 ng/mL)) for entry O=c1[nH]c(=O)n([C@H]2C[C@H](O)[C@@H](CO)O2)cc1F [Floxuridine] (max concentration tested 10000 nM) is 0.05

====

tested on: KHYG-1 (IL-2 2.5 ng/mL); test: drug sensitivity score (DSS) (DSS units); higher = more sensitive; extreme values may be limits of the assay; settings: 72 h
endpoint: drug sensitivity score
Format: numeric value only, no unit, no commentary.

Cc1cc(Nc2cc(CN3CCOCC3)c3nc(C)c(Cc4ccc(Cl)cc4F)n3n2)n[nH]1 [Gandotinib] (max concentration tested 10000 nM) ... 23.9
CC[C@@H]1C(=O)OC[C@@H]1Cc1cncn1C [Pilocarpine] (max concentration tested 40000 nM) ... 0.51

Summary for this compound, Cn1cc(C2=Nc3cc(NC(=O)C(N)C4CCCCC4)cc4c3C2=CNNC4=O)cn1 (stereo not drawn) (max concentration tested 10000 nM) : drug sensitivity score is 22.6

====

List of percent inhibition of viability values.
system: YT (IL-2 2.5 ng/mL); assay: percent inhibition of viability; higher = more inhibition; details: 72 h; 1 nM
# unit: % | format: bare number

Example cases with answers are listed next.
COC(=O)C[C@](O)(CCCC(C)(C)O)C(=O)O[C@@H]1C(OC)=C[C@]23CCCN2CCc2cc4c(cc2[C@H]13)OCO4 [Omacetaxine] (max concentration tested 10000 nM) ... -7.92
O=C(/C=C/c1cccnc1)NCCCCC1CCN(C(=O)c2ccccc2)CC1 [Daporinad] (max concentration tested 1000 nM) ... 3.35
CCc1nc(-c2cccc(C)c2)c(-c2ccnc(NC(=O)c3ccccc3)c2)s1 [TAK-715] (max concentration tested 10000 nM) ... -1.34
Cc1cc(Nc2cc(CN3CCOCC3)c3nc(C)c(Cc4ccc(Cl)cc4F)n3n2)n[nH]1 [Gandotinib] (max concentration tested 10000 nM) ... 1.95

Summary for this compound, Cn1cc(C2=Nc3cc(NC(=O)C(N)C4CCCCC4)cc4c3C2=CNNC4=O)cn1 (stereo unspecified) (max concentration tested 10000 nM) : percent inhibition of viability is 1.41

Summary for this compound, CC1=C(/C=C/C(C)=C/C=C/C(C)=C/C(=O)O)C(C)(C)CCC1 [Tretinoin] (max concentration tested 10000 nM) : percent inhibition of viability is -1.46

====

test system: normal primary NK cells, pool 1 (3 donors), resting (IL-2 0 ng/mL); experiment: drug sensitivity score (DSS) (DSS units); higher = more sensitive; extreme values may be limits of the assay; details: 72 h
List of drug sensitivity score values.
Format: numeric value only, no unit, no commentary.

Example cases with answers are listed next.
CN(c1ncccc1CNc1nc(Nc2ccc3c(c2)CC(=O)N3)ncc1C(F)(F)F)S(C)(=O)=O (max concentration tested 10000 nM) ... 3.17
O=C(/C=C\n1cnc(-c2cc(C(F)(F)F)cc(C(F)(F)F)c2)n1)NNc1cnccn1 [Selinexor] (max concentration tested 10000 nM) ... 29

Note: attention shifts to another entry.
Summary for this compound, CN1CC[C@H](c2c(O)cc(O)c3c(=O)cc(-c4ccccc4Cl)oc23)[C@H](O)C1 [Alvocidib] (max concentration tested 10000 nM) : drug sensitivity score is 15.8

====

system: NKL (IL-2 2.5 ng/mL); test: percent inhibition of viability; higher = more inhibition; conditions: 72 h; 100 nM
List of percent inhibition of viability values.
# unit: % | format: bare number

COc1cc2ncnc(Nc3ccc(F)c(Cl)c3)c2cc1OCCCN1CCOCC1 [Gefitinib] (max concentration tested 10000 nM) ... -2.03
S=c1[nH]cnc2nc[nH]c12 [Mercaptopurine] (max concentration tested 10000 nM) ... -11.9
FC(F)(F)c1ccc(/C=C/c2nc(COc3ccc(CCCCn4ccnn4)cc3)co2)cc1 [Mubritinib] (max concentration tested 1000 nM) ... 38.2
COc1ccc(C[C@H](NC(=O)[C@H](C)NC(=O)CN2CCOCC2)C(=O)N[C@@H](Cc2ccccc2)C(=O)C2(C)CO2)cc1 (stereo in doubt) [ONX-0914] (max concentration tested 10000 nM) ... 103
O=C(Nc1ccncc1)C(=O)c1cn(Cc2ccc(Cl)cc2)c2ccccc12 [Indibulin] (max concentration tested 10000 nM) ... 51.8

Summary for this compound, Cn1cc(C2=Nc3cc(NC(=O)C(N)C4CCCCC4)cc4c3C2=CNNC4=O)cn1 (configuration not stated) (max concentration tested 10000 nM) : percent inhibition of viability is -0.69

Summary for this compound, CC(C)C[C@@H](C(=O)N[C@H](C(=O)OC1CCCC1)c1ccccc1)[C@H](O)C(=O)NO [Tosedostat] (max concentration tested 10000 nM) : percent inhibition of viability is 15

Summary for this compound, CC(=O)c1c(C)c2cnc(Nc3ccc(N4CCNCC4)cn3)nc2n(C2CCCC2)c1=O [Palbociclib] (max concentration tested 10000 nM) : percent inhibition of viability is -14.5

Summary for this compound, O=C(O)c1ccc(Nc2ncc3c(n2)-c2ccc(Cl)cc2C(c2c(F)cccc2F)=NC3)cc1 [MLN-8054] (max concentration tested 10000 nM) : percent inhibition of viability is 30.5

Summary for this compound, CC(C)Oc1ccc(C(=O)N[C@H](CNC(=O)CN(C)C)Cc2ccc(-c3cn4cccc([C@H](C)O)c4n3)cc2)cc1Cl (max concentration tested 10000 nM) : percent inhibition of viability is 66.4

Summary for this compound, CCS(=O)(=O)c1cccc(-c2cc(C(=O)NC3CCN(C)CC3)c(C)c3[nH]c4ncc(C)cc4c23)c1 [TAK-901] (max concentration tested 1000 nM) : percent inhibition of viability is 31.8

Summary for this compound, COc1cc([C@@H]2c3cc4c(cc3[C@@H](O[C@@H]3O[C@@H]5CO[C@@H](c6cccs6)O[C@H]5[C@H](O)[C@H]3O)[C@H]3COC(=O)[C@H]23)OCO4)cc(OC)c1O [Teniposide] (max concentration tested 10000 nM) : percent inhibition of viability is 98.3

====

test system: DERL-7 (IL-2 2.5 ng/mL); assay: drug sensitivity score (DSS) (DSS units); higher = more sensitive; extreme values may be limits of the assay; settings: 72 h
List of drug sensitivity score values.
Format: numeric value only, no unit, no commentary.

Example cases with answers are listed next.
CCOC(=O)CCNc1cc(N2CCc3ccccc3CC2)nc(-c2ccccn2)n1 [GSK-J4] (max concentration tested 100000 nM) ... 18.9
COc1cc(Nc2ncc(F)c(Nc3ccc4c(n3)NC(=O)C(C)(C)O4)n2)cc(OC)c1OC [Tamatinib] (max concentration tested 10000 nM) ... 5.34

Reported drug sensitivity score (DERL-7 (IL-2 2.5 ng/mL)) for entry COc1cc2c(cc1O)CC[C@@H]1[C@@H]2CC[C@]2(C)[C@@H](O)CC[C@@H]12 [2-methoxyestradiol] (max concentration tested 10000 nM) is 14.2

Reported drug sensitivity score (DERL-7 (IL-2 2.5 ng/mL)) for entry COc1cccc2c1C(=O)c1c(O)c3c(c(O)c1C2=O)C[C@@](O)(C(C)=O)C[C@@H]3O[C@H]1C[C@H](N)[C@H](O)[C@H](C)O1 [Daunorubicin] (max concentration tested 1000 nM) is 19.7

Reported drug sensitivity score (DERL-7 (IL-2 2.5 ng/mL)) for entry C=CC(=O)Nc1cc2c(Nc3ccc(F)c(Cl)c3)ncnc2cc1OCCCN1CCOCC1 [Canertinib] (max concentration tested 10000 nM) is 10.9

Reported drug sensitivity score (DERL-7 (IL-2 2.5 ng/mL)) for entry CC[C@]1(O)C[C@@H]2CN(CCc3c([nH]c4ccccc34)[C@@](C(=O)OC)(c3cc4c(cc3OC)N(C)[C@H]3[C@@](O)(C(=O)OC)[C@H](OC(C)=O)[C@]5(CC)C=CCN6CC[C@]43[C@@H]65)C2)C1 [Vinblastine] (max concentration tested 1000 nM) is 30.2

Reported drug sensitivity score (DERL-7 (IL-2 2.5 ng/mL)) for entry CC[C@@H]1C(=O)OC[C@@H]1Cc1cncn1C [Pilocarpine] (max concentration tested 40000 nM) is 0

Reported drug sensitivity score (DERL-7 (IL-2 2.5 ng/mL)) for entry Cc1cnc(NC(=O)Nc2cc(Br)c(C)cc2OC[C@@H]2CNCCO2)cn1 [Rabusertib] (max concentration tested 1000 nM) is 2.31

Reported drug sensitivity score (DERL-7 (IL-2 2.5 ng/mL)) for entry C[C@@H]1C[C@H]2O[C@@H]2/C=C\C=C\C(=O)Cc2c(Cl)c(O)cc(O)c2C(=O)O1 [Radicicol] (max concentration tested 10000 nM) is 28.9

Reported drug sensitivity score (DERL-7 (IL-2 2.5 ng/mL)) for entry COc1ccc(C[C@H](NC(=O)[C@H](C)NC(=O)CN2CCOCC2)C(=O)N[C@@H](Cc2ccccc2)C(=O)C2(C)CO2)cc1 (stereo in doubt) [ONX-0914] (max concentration tested 10000 nM) is 32.7

Reported drug sensitivity score (DERL-7 (IL-2 2.5 ng/mL)) for entry NCC(=O)Nc1ccc(-n2nc(C(F)(F)F)cc2-c2ccc3c(ccc4ccccc43)c2)cc1 (max concentration tested 25000 nM) is 1.36
